molecular target: Metabotropic glutamate receptor 5 (Rattus norvegicus); assay: Antagonist activity at rat mGluR5 expressed in HEK293A cells assessed as glutamate-induced calcium flux preincubated for 140 sec before glutamate challenge by calcium fluorescence assay
Sequence (P31424 whole entry): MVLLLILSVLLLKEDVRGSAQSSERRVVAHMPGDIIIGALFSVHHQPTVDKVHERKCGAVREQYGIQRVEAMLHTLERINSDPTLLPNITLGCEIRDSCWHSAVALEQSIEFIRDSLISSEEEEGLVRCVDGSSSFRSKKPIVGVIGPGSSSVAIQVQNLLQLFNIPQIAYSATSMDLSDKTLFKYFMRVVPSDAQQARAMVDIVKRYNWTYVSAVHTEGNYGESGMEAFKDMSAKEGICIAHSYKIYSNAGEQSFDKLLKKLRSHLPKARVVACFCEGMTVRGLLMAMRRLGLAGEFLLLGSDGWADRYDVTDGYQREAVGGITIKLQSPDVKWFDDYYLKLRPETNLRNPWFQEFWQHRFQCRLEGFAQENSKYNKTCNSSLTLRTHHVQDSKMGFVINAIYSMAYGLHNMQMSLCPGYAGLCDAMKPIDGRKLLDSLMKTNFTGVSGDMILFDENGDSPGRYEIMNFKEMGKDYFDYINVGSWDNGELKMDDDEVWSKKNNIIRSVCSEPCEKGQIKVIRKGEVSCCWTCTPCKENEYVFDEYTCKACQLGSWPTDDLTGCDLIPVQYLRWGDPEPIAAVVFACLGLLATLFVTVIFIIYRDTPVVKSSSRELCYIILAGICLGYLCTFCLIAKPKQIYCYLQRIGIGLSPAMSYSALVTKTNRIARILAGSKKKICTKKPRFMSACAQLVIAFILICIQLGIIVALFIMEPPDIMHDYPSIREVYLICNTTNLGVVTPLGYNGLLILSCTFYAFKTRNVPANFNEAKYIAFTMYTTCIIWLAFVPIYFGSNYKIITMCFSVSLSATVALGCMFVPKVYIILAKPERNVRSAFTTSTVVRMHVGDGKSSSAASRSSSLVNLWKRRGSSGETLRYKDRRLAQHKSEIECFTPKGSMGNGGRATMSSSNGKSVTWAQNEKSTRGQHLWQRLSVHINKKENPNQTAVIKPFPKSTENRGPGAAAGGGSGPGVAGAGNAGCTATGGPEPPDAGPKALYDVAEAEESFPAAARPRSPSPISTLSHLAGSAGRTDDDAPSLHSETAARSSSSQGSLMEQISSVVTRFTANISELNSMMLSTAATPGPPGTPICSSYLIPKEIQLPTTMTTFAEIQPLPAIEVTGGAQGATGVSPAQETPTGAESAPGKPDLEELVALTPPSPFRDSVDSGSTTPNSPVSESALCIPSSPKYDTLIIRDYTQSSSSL
// thresholds for IC50 classes: L = under 5 nM, M = from 5 nM up to 100 nM, H = 100 nM and over

- MOLECULE SMILES: "Cc1cccc(NC(=O)c2cc(F)cc(C#N)c2)n1"
  DISCRETE LABEL: "M"
- MOLECULE SMILES: "Cc1nc(C#Cc2cc(F)cc(-c3cccnc3)c2)cs1"
  DISCRETE LABEL: "L"
- MOLECULE SMILES: "Cc1cccc(C#Cc2ccc(-c3ccc(F)cc3)c(C#N)c2)n1"
  DISCRETE LABEL: "M"
- MOLECULE SMILES: "Cc1cccc(NC(=O)c2ccc(-c3cccnc3)nc2)n1"
  DISCRETE LABEL: "H"
- MOLECULE SMILES: "Cc1cccc(NC(=O)c2ccc(-c3cccnc3)c(Cl)c2)n1"
  DISCRETE LABEL: "H"
- MOLECULE SMILES: "Cc1cccc(NC(=O)c2ccc(-c3ccccc3)c(C#N)c2)n1"
  DISCRETE LABEL: "M"
- MOLECULE SMILES: "Cc1cccc(NC(=O)c2ccc(-c3ccc(F)cc3)c(C#N)c2)n1"
  DISCRETE LABEL: "L"
- MOLECULE SMILES: "Cc1cccc(NC(=O)c2ccc(-c3cccc4ccccc34)c(C#N)c2)n1"
  DISCRETE LABEL: "H"
- MOLECULE SMILES: "Cc1cccc(NC(=O)c2ccc(-c3ccccc3)nc2)n1"
  DISCRETE LABEL: "H"
- MOLECULE SMILES: "Cc1cccc(NC(=O)c2cccc(Cl)c2)n1"
  DISCRETE LABEL: "H"
- MOLECULE SMILES: "Cc1cccc(NC(=O)c2cccc(C#N)c2)n1"
  DISCRETE LABEL: "H"
- MOLECULE SMILES: "Cc1cccc(NC(=O)c2ccc(-c3cccnc3)c(C#N)c2)n1"
  DISCRETE LABEL: "H"
- MOLECULE SMILES: "Cc1cccc(NC(=O)c2ccc(-c3cccnc3)c(F)c2)n1"
  DISCRETE LABEL: "H"
- MOLECULE SMILES: "Cc1cccc(C#Cc2cccc(C#N)c2)n1"
  DISCRETE LABEL: "L"
- MOLECULE SMILES: "Cc1nc(C#Cc2cc(F)cc(C#N)c2)cs1"
  DISCRETE LABEL: "L"

###

Observed Ki for Metabotropic glutamate receptor 5 (Homo sapiens), reported per entry below.

- MOLECULE SMILES: "Cc1cccc(NC(=O)c2ccc(Br)cc2)n1"
  UNITS TEXT: "µM"
  RELATION OPERATOR: ">"
  Ki: 10
- MOLECULE SMILES: "Cc1cccc(NC(=O)c2ccc(F)c(F)c2)n1"
  UNITS TEXT: "µM"
  RELATION OPERATOR: ">"
  Ki: 10
- MOLECULE SMILES: "Cc1cccc(NC(=O)c2ccc(-c3ccccc3)cc2)n1"
  UNITS TEXT: "µM"
  RELATION OPERATOR: "="
  Ki: 7
- MOLECULE SMILES: "Cc1nc(C#Cc2cc(F)cc(C#N)c2)cs1"
  UNITS TEXT: "µM"
  RELATION OPERATOR: "="
  Ki: 0.0009
- MOLECULE SMILES: "Cc1nc(C#Cc2cc(F)cc(-c3cccnc3)c2)cs1"
  UNITS TEXT: "µM"
  RELATION OPERATOR: "="
  Ki: 0.0027
- MOLECULE SMILES: "Cc1cccc(NC(=O)c2ccc(-c3cccc(C#N)c3)cc2)n1"
  UNITS TEXT: "µM"
  RELATION OPERATOR: ">"
  Ki: 10
- MOLECULE SMILES: "Cc1cccc(NC(=O)c2ccc(-c3cccc(Cl)c3)cc2)n1"
  UNITS TEXT: "µM"
  RELATION OPERATOR: "="
  Ki: 3.33
- MOLECULE SMILES: "Cc1cccc(NC(=O)c2ccc(C#N)cc2)n1"
  UNITS TEXT: "µM"
  RELATION OPERATOR: ">"
  Ki: 10

Origin of measurements: ChEMBL document CHEMBL1136938
